Data provenance: patent US20260374766A1

molecules and their reported Emax
Biological target: p53 Y220C (Homo sapiens, UniProt P04637, Y220C)
Experiment: Luciferase Reporter Assay (Luc), p53 response element, NClH1299 cells with inducible p53 Y220C
Format: cell-based
Settings: Emax; luciferase reporter, NClH1299 inducible p53 Y220C, 6 hour

Please review the following examples before continuing.
[
  {
    "molecule": "CNC(=O)c1ccc(OC)c(NCC#Cc2cc3c(N[C@@H]4CCN(C[C@@H](C)O)C[C@@H]4F)nccn3c2SC(F)(F)F)c1 [Example 401]",
    "observed value": "> 90%"
  },
  {
    "molecule": "CNC(=O)c1ccc(C)c(NCC#Cc2cc3c(N[C@@H]4CCN(C)C[C@@H]4F)nccn3c2SC(F)(F)F)c1 [Example 294]",
    "observed value": "> 90%"
  },
  {
    "molecule": "CNC(=O)c1ccc(NCC#Cc2nn3c(N[C@@H]4CCN(C)C[C@@H]4F)cccc3c2SC(F)F)c(OC)c1 [Example 366]",
    "observed value": "70 to 80%"
  },
  {
    "molecule": "CNC(=O)c1cnc(OC)c(NCC#Cc2nc3c(N[C@@H]4CCN(C)C[C@@H]4F)cccn3c2CC(F)(F)F)c1 [Example 261]",
    "observed value": "70 to 80%"
  },
  {
    "molecule": "COc1cc(S(C)(=N)=O)ccc1NCC#Cc1cc2c(N[C@@H]3CCN(C)C[C@@H]3F)cccn2c1SC(F)(F)F (some centres unmarked) [Example 374]",
    "observed value": "80 to 90%"
  }
]

Emax for CNC(=O)c1ccc(OC)c(NCC#Cc2nn3c(N[C@@H]4CCNC[C@@H]4F)cccc3c2SC(F)(F)F)n1 [Example 237] is 70 to 80%

Emax for CNC(=O)c1ccc(NCC#Cc2nc3c(N[C@@H]4CCNC[C@@H]4F)nccn3c2SC(F)(F)F)c(OC)c1 [Example 319] is > 90%

Emax for [2H]C([2H])([2H])Oc1cc(S(C)(=O)=O)ccc1NCC#Cc1cc2c(N[C@@H]3CCN(C(F)(F)F)C[C@@H]3F)cccn2c1SC(F)(F)F [Example 412] is > 90%

Emax for CNC(=O)c1ccc(NCC#Cc2cc3c(N[C@@H]4CCN(C)C[C@@H]4F)nccn3c2SC(F)(F)F)c(C#N)c1 [Example 301] is > 90%
